Molecular target: cerebral H1 receptor (Mus musculus, UniProt P70174)
Construct: the entire brain, except for cerebellum and medulla oblongatae, was rapidly excised; from tissue; host or cells: brain homogenate (without cerebellum and medulla oblongata) of orally dosed ICR male mice
Sequence (P70174 whole entry): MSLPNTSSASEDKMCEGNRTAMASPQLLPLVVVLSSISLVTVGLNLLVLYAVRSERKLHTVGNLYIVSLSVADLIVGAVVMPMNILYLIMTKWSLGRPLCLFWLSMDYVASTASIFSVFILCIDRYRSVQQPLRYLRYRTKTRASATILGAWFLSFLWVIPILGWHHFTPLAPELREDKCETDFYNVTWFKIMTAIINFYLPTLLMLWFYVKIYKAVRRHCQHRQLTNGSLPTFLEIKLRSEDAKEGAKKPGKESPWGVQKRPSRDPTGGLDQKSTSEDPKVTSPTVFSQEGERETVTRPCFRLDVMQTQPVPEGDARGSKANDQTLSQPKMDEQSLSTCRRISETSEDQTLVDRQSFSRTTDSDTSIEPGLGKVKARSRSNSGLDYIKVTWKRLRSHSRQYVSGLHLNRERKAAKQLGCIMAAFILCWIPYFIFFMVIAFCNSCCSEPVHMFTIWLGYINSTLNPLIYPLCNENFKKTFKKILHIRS
Test: Murine cerebral H1 receptor occupying content (ex vivo)
Type: in vivo
Conditions: ID50 of cerebral receptor binding test (Table 20) divided by ED50 of vascular hyperpermeability test (Table 19)
Measured parameter: ID50 (mg/kg)/ ED50 (mg/kg)
Lab note: record just the number, no unit beside it.

Q: Answer with reported ID50 (mg/kg)/ ED50 (mg/kg) of CN1CCC(=C2c3cc(C=CC(=O)O)ccc3OCc3ccsc32)CC1 [Compound 35]
Ans: 101.4

Q: Answer with reported ID50 (mg/kg)/ ED50 (mg/kg) of CCCN1CCC(=C2c3cc(CC(=O)OC)ccc3OCc3ccsc32)CC1.Cl [Compound 129]
Ans: 460.2

====

Answer each item with its documented ID50 (mg/kg)/ ED50 (mg/kg).
Molecular target: cerebral H1 receptor (Mus musculus, UniProt P70174)
Construct: the entire brain, except for cerebellum and medulla oblongatae, was rapidly excised; from tissue; host or cells: brain homogenate (without cerebellum and medulla oblongata) of orally dosed ICR male mice
Assay: Murine cerebral H1 receptor occupying content (ex vivo)
Assay type: in vivo
Details: ID50 of cerebral receptor binding test (Table 20) divided by ED50 of vascular hyperpermeability test (Table 19)
Lab note: record just the number, no unit beside it.

Q: Answer with reported ID50 (mg/kg)/ ED50 (mg/kg) of CSCCCN1CCC(=C2c3cc(CC(=O)O)ccc3OCc3ccsc32)CC1
Ans: 450.0

Q: Answer with reported ID50 (mg/kg)/ ED50 (mg/kg) of COC(=O)Cc1ccc2c(c1)C(=C1CCN(CCO)CC1)c1sccc1CO2.Cl
Ans: 50.6

Q: Answer with reported ID50 (mg/kg)/ ED50 (mg/kg) of CC(=O)CN1CCC(=C2c3cc(CC(=O)O)ccc3OCc3ccsc32)CC1
Ans: 39.4

Q: Answer with reported ID50 (mg/kg)/ ED50 (mg/kg) of CCOC(=O)CCN1CCC(=C2c3cc(CC(=O)OC)ccc3OCc3ccsc32)CC1.Cl
Ans: 60.9

Q: Answer with reported ID50 (mg/kg)/ ED50 (mg/kg) of CCOC(=O)C(C)(C)c1cc2c(s1)CCc1ccccc1C2=C1CCNCC1.Cl
Ans: 133.8

====

Biological target: UniProtKB P35367
Counter-ions that a name gives are not always drawn.
Under this convention, satisfied denotes IC50 strictly below 20 nM and not satisfied denotes IC50 at or above 20 nM.

Q: Regarding CC(OC(=O)OC1CCCCC1)OC(=O)c1cc2c(s1)CCc1ccccc1C2=C1CCN(C)CC1 (centres unmarked) [Compound 176, hydrochloride] , kindly confirm whether its IC50 is beneath 20 nM.
Ans: not satisfied

Q: Regarding N#CCCN1CCC(=C2c3ccccc3CCc3sc(C(=O)O)cc32)CC1 , kindly confirm whether its IC50 is beneath 20 nM.
Ans: not satisfied

Q: Regarding COCCNC(=O)c1cc2c(s1)CCc1ccccc1C2=C1CCN(C)CC1 [Compound 38, hydrochloride] , kindly confirm whether its IC50 is beneath 20 nM.
Ans: not satisfied

Q: Regarding CN1CCC(=C2c3cc(SCC(=O)O)ccc3OCc3ccsc32)CC1 , kindly confirm whether its IC50 is beneath 20 nM.
Ans: not satisfied

Q: Regarding OCCc1ccc2c(c1)C(=C1CCN(CCO)CC1)c1sccc1CO2 , kindly confirm whether its IC50 is beneath 20 nM.
Ans: satisfied

Q: Regarding CCOC(=O)COCCN1CCC(=C2c3ccccc3CCc3sc(C(=O)OCC)cc32)CC1 [Compound 110, hydrochloride] , kindly confirm whether its IC50 is beneath 20 nM.
Ans: not satisfied

Q: Regarding COC(=O)Cc1ccc2c(c1)C(=C1CCN(CCCN3CCCCC3)CC1)c1sccc1CO2 [Compound 163, dihydrochloride] , kindly confirm whether its IC50 is beneath 20 nM.
Ans: not satisfied

Q: Regarding COC(=O)Cc1ccc2c(c1)C(=C1CCN(CCNS(C)(=O)=O)CC1)c1sccc1CO2.Cl [Compound 177, hydrochloride] , kindly confirm whether its IC50 is beneath 20 nM.
Ans: satisfied

====

Answer each item with its documented ED50.
Target: cerebral H1 receptor (Mus musculus, UniProt P70174)
Construct: the entire brain, except for cerebellum and medulla oblongatae, was rapidly excised; from tissue; host or cells: brain homogenate (without cerebellum and medulla oblongata) of orally dosed ICR male mice
Experiment: Murine cerebral H1 receptor occupying content (ex vivo)
Format: in vivo
Settings: ICR male mouse, oral administration, brain excised after 1 hour, 3H-pyrilamine binding in brain homogenate; larger = lower brain transfer; read-out: ID50 (the source's name)
Quick note: give the figure in mg/kg, leave out the unit.

Q: Answer with reported ED50 of CN1CCC(=C2c3cc(C(=O)O)ccc3OCc3ccsc32)CC1
Ans: 4.8

Q: Answer with reported ED50 of CC(=O)CN1CCC(=C2c3cc(CC(=O)O)ccc3OCc3ccsc32)CC1
Ans: 10.4

Q: Answer with reported ED50 of CCN1CCC(=C2c3cc(CC(=O)O)ccc3OCc3ccsc32)CC1
Ans: 7.45

Q: Answer with reported ED50 of CN1CCC(=C2c3ccccc3CC(=O)c3sc(C=CC(=O)O)cc32)CC1
Ans: 95.5

Q: Answer with reported ED50 of COC(=O)Cc1ccc2c(c1)C(=C1CCN(CCO)CC1)c1sccc1CO2.Cl
Ans: 24.3

Q: Answer with reported ED50 of COC(=O)Cc1ccc2c(c1)C(=C1CCN(CCSC)CC1)c1sccc1CO2.Cl
Ans: 53.4

Q: Answer with reported ED50 of COC(=O)Cc1ccc2c(c1)C(=C1CCN(CCNS(C)(=O)=O)CC1)c1sccc1CO2.Cl
Ans: 125

Q: Answer with reported ED50 of CCOC(=O)C(C)(C)c1cc2c(s1)CCc1ccccc1C2=C1CCNCC1.Cl
Ans: 199

Q: Answer with reported ED50 of COC(=O)Cc1ccc2c(c1)C(=C1CCN(C(C)C)CC1)c1sccc1CO2.Cl
Ans: 9.2

Q: Answer with reported ED50 of CN1CCC(=C2c3cc(SC(C)(C)C(=O)O)ccc3OCc3ccsc32)CC1.Cl
Ans: 73.2

Q: Answer with reported ED50 of O=C(O)Cc1ccc2c(c1)C(=C1CCN(CCO)CC1)c1sccc1CO2
Ans: 74.5

Q: Answer with reported ED50 of CCOC(=O)Cc1ccc2c(c1)C(=C1CCN(C)CC1)c1sccc1CO2.Cl
Ans: 3.5

Q: Answer with reported ED50 of COC(=O)COc1ccc2c(c1)C(=C1CCN(C)CC1)c1sccc1CO2.Cl
Ans: 23

Q: Answer with reported ED50 of CN1CCC(=C2c3cc(CC(=O)O)ccc3CCc3sccc32)CC1
Ans: 6.36

Q: Answer with reported ED50 of CCN1CCC(=C2c3ccccc3CCc3sc(C(=O)O)cc32)CC1.Cl
Ans: 110

Q: Answer with reported ED50 of COC(=O)Cc1ccc2c(c1)C(=C1CCN(CCCSC)CC1)c1sccc1CO2.Cl
Ans: 22.1

====

Answer each item with its documented IC50.
Counter-ions that a name gives are not always drawn.
Quick note: give the figure in µM, leave out the unit.

Q: Send back human histamine H1 receptor (Homo sapiens) IC50 of CCOC(=O)c1ccc2c(c1)C(=C1CCN(C)CC1)c1sccc1CC2 only.
Ans: 0.0166

Q: Send back human histamine H1 receptor (Homo sapiens) IC50 of C=CCNC(=O)c1cc2c(s1)CCc1ccccc1C2=C1CCN(C)CC1 only.
Ans: 0.0212

Q: Send back human histamine H1 receptor (Homo sapiens) IC50 of COC(=O)Cc1ccc2c(c1)C(=C1CCN(CCC(C)=O)CC1)c1sccc1CO2.Cl [Compound 191, hydrochloride] only.
Ans: 0.00472

Q: Send back human histamine H1 receptor (Homo sapiens) IC50 of CCN1CCC(=C2c3cc(CCCC(=O)OC)ccc3OCc3ccsc32)CC1 [Compound 141, hydrochloride] only.
Ans: 0.00677

Q: Send back human histamine H1 receptor (Homo sapiens) IC50 of COC(=O)CCCc1ccc2c(c1)C(=C1CCN(C)CC1)c1sccc1CO2 [Compound 123, hydrochloride] only.
Ans: 0.00312

Q: Send back human histamine H1 receptor (Homo sapiens) IC50 of CN1CCC(=C2c3ccccc3OCc3cc(CC(=O)O)sc32)CC1.Cl [Compound 58, hydrochloride] only.
Ans: 0.0693

Q: Send back human histamine H1 receptor (Homo sapiens) IC50 of COC(=O)CCCCc1ccc2c(c1)C(=C1CCN(C)CC1)c1sccc1CO2 [Compound 156, hydrochloride] only.
Ans: 0.00966

Q: Send back human histamine H1 receptor (Homo sapiens) IC50 of CONC(=O)c1cc2c(s1)CCc1ccccc1C2=C1CCN(C)CC1 [Compound 40, hydrochloride] only.
Ans: 0.0521

====

Target: human histamine H1 receptor (Homo sapiens, UniProt P35367)
Sequence (P35367 whole entry): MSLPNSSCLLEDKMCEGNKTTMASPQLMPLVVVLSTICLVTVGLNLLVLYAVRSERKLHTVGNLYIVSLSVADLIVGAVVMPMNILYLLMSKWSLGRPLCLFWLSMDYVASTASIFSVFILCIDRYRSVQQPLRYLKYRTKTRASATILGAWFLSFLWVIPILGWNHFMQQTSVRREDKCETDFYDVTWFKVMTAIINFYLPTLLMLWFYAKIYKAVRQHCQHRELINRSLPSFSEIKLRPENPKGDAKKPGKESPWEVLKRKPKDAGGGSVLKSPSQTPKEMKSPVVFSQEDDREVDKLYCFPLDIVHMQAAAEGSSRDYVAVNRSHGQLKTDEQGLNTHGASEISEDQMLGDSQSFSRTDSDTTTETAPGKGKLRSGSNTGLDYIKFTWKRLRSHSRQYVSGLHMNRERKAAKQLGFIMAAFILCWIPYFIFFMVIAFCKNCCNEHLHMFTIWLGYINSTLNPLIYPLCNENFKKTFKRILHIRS
pIC50: −log10 of the molar value. Structures can show the parent of a compound that is named as a salt.
# pIC50 >= 8 gives 1, anything below gives 0

Q: # bool: pIC50 of CC(C(=O)O)c1cc2c(s1)C(=C1CCN(C)CC1)c1ccccc1CC2 (stereo not shown) [Compound 60, hydrochloride] >= 8
Ans: 0

Q: # bool: pIC50 of CN1CCC(=C2c3ccccc3CCc3sc(CC(=O)NCCO)cc32)CC1 >= 8
Ans: 0

Q: # bool: pIC50 of CN1CCC(=C2c3ccccc3CCc3sc(C(=O)NO)cc32)CC1 >= 8
Ans: 0

Q: # bool: pIC50 of CN1CCC(=C2c3cc(CC(=O)O)ccc3CCc3sccc32)CC1 >= 8
Ans: 0

Q: # bool: pIC50 of COC(=O)CSc1ccc2c(c1)C(=C1CCNCC1)c1sccc1CO2.Cl [Compound 197, hydrochloride] >= 8
Ans: 0

Q: # bool: pIC50 of CN1CCC(=C2c3ccccc3CCc3sc(C(=O)NCC(F)(F)F)cc32)CC1 >= 8
Ans: 0

Q: # bool: pIC50 of COC(=O)Cc1ccc2c(c1)C(=C1CCN(CCCO)CC1)c1sccc1CO2.Cl [Compound 138, hydrochloride] >= 8
Ans: 0

Q: # bool: pIC50 of CN1CCC(=C2c3ccccc3CCc3sc(C(=O)N(C)O)cc32)CC1 >= 8
Ans: 0

Q: # bool: pIC50 of CCOC(=O)Cc1cc2c(s1)C(=C1CCN(C)CC1)c1ccccc1CC2 [Compound 23, hydrochloride] >= 8
Ans: 1

Q: # bool: pIC50 of C=Cc1cc2c(s1)CCc1ccccc1C2=C1CCN(C)CC1 >= 8
Ans: 1

Q: # bool: pIC50 of CCOC(=O)c1cc2c(s1)CCc1ccccc1C2=C1CCN(CC)CC1 [Compound 103, hydrochloride] >= 8
Ans: 0
